target: T1, human MMP-12 (human, UniProt P39900 106-470, limits assumed); test: BIACORE, coated Fab
T1 construct: also called hMMP-12; huMMP12
T1 sequence (P39900 106-470 limits assumed): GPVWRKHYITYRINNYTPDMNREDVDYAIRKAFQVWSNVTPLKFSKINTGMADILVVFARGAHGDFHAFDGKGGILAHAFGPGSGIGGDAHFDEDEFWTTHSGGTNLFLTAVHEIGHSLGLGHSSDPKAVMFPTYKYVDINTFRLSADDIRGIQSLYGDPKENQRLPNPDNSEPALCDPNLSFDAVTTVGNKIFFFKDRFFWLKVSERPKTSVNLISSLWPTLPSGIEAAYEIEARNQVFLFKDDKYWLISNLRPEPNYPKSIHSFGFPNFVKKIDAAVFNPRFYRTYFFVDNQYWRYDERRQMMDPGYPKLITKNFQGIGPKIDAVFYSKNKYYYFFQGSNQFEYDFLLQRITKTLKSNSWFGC
Listed below: Kd values for each entry.
Your answer is read as nM, so omit the unit and give the number.

{"binder": "539B-M0008-H09 Fab (Fab, V domains shown, N-glycosylation site in LC CDR1; also called M08H09) VH: EVQLLESGGGLVQPGGSLRLSCAASGFTFSDYNMHWVRQAPGKGLEWVSYIGPSGGYTHYADSVKGRFTISRDNSKNTLYLQMNSLRAEDTAVYYCAKDIRGAYSSGLFDYWGRGTLVTVSS VL: DIQMTQSPSSLSASVGDRVTITCRANQSIYTYLNWYQQKPGKAPELLIYAASSLQSGVPSRFSGSGSGTDFTLTISSLQPEDFATYYCQQAGIFGQGTKLEIK", "attribute measured": "Kd", "value reported": 17.7}

Return the recorded Kd value; entry: 539B-M0065-H05 (Fab, V domains shown) VH: EVQLLESGGGLVQPGGSLRLSCAASGFTFSYYGMGWVRQAPGKGLEWVSVISSSGGFTFYADSVKGRFTISRDNSKNTLYLQMNSLRAEDTAVYYCAKDIRGAYSSGLFDYWGRGTLVTVSS VL: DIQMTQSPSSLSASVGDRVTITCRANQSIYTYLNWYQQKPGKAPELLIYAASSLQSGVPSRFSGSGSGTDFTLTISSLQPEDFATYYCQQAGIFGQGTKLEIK
2.19
